Origin of values: paper PMC3154423

target: Jun bZIP R259A;Fos bZIP R155A (human;human, UniProt P05412;P01100 252-315;137-200, R259A|R155A); assay: ITC
Sequence (P05412 252-315 R259A, chain 1 of 2): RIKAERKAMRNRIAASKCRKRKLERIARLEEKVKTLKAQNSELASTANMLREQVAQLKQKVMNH
Sequence (P01100 137-200 R155A, chain 2 of 2): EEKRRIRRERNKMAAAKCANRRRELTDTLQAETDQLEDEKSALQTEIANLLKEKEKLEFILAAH
pKd: −log10 of the molar value.
readout: pKd

>>> readoutnumber("TRE duplex 15-mer (dsDNA) DNA 1: CGCGTGACTCACCCC DNA 2: GGGGTGAGTCACGCG")
5.24
